Target: GPIIb/IIIa (Homo sapiens, UniProt P05106+P08514)
Construct: Purification of GPIIb/IIIa from HEL cells; endogenous in cells; host or cells: HEL cells (HEL 92.1.7, ATCC TIB180); endogenous complex solubilized with Triton X-100 and purified in house
Sequence (P08514 32-887 limits assumed): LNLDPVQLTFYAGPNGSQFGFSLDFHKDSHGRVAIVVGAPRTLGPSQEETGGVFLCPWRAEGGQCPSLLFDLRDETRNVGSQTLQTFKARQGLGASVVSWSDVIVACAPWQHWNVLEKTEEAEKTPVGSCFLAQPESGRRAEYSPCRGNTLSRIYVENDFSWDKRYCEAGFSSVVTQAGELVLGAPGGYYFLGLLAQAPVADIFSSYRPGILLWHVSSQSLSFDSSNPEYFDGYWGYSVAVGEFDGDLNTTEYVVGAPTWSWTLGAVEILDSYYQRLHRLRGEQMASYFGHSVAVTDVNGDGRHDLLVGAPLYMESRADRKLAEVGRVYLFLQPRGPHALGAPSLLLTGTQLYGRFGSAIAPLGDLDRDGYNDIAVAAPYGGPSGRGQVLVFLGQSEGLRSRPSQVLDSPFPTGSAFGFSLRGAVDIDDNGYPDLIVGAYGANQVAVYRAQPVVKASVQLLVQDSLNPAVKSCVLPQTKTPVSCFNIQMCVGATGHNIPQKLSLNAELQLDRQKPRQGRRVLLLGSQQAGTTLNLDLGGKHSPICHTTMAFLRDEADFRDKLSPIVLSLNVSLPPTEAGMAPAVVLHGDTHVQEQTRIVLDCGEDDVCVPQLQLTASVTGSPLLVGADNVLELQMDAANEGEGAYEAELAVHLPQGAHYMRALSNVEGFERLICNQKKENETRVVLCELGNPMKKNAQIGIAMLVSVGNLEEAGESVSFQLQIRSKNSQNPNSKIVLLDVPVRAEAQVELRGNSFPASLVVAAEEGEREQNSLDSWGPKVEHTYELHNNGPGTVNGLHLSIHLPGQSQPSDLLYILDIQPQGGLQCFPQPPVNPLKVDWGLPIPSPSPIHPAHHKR
Sequence (P08514 891-1039 limits assumed): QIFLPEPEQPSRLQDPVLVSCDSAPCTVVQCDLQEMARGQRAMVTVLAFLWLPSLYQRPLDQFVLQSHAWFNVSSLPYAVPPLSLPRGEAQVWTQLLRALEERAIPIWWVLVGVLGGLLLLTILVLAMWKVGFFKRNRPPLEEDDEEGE
Sequence (P05106 27-788): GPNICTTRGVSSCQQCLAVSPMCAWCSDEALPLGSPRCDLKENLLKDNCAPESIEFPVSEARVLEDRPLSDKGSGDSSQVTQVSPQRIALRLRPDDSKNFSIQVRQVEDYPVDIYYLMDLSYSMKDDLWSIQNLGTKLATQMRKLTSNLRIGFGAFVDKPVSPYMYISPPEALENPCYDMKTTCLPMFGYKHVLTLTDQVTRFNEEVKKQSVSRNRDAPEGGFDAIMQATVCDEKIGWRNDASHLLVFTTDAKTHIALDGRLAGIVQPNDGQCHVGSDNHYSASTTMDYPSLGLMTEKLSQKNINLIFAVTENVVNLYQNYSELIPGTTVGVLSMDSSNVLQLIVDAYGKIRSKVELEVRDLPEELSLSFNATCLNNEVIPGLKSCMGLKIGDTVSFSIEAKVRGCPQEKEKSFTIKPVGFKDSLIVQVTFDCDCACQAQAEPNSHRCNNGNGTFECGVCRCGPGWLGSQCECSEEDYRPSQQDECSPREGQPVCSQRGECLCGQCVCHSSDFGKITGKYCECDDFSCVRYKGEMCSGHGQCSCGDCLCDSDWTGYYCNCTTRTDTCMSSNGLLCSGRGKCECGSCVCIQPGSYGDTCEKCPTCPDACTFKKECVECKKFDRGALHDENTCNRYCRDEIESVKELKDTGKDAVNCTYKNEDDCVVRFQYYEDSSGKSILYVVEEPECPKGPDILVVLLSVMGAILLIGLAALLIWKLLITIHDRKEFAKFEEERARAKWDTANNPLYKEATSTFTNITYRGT
Assay: Inhibitory activity against binding of GPIIb/IIIa and fibrinogen
Conditions: Table 1; 1 × 10^-6 M; read-out: GPIIb/IIIa Fibrinogen Binding Inhibitory Activity
quantity: inhibition at 1 µM (%)

NC1CCN(c2nc3c(cc2F)c(=O)c(C(=O)O)cn3-c2ccc(F)cc2F)C1 (stereo not shown) [Tosufloxacin, reference compound] | 30.7

P. CCn1cc(C(=O)O)c(=O)c2cc(F)c(N3CCNCC3)cc21 [Norfloxacin, reference compound]
Q. CCn1cc(C(=O)O)c(=O)c2cc(F)c(N3CCNCC3)nc21 [Enoxacin, reference compound]
R. CC1COc2c(N3CCN(C)CC3)c(F)cc3c(=O)c(C(=O)O)cn1c23 (stereo not shown) [Ofloxacin, reference compound]
Ask: Which order do these items take when sorted by rising inhibition at 1 µM? List them. Answer format: the labels, ordered as requested.
Result: R, Q, P
(R: 4%, Q: 24.3%, P: 38.7%)
